# Assay name: Population PK model of evobrutinib
# Type: in vivo, human
# Condition context: human, in vivo, 75 mg
Result type: Cmax (ng/mL)
One number for each entry, in ng/mL.

Looking for the measured Cmax of `C=CC(=O)N1CCC(CNc2ncnc(N)c2-c2ccc(Oc3ccccc3)cc2)CC1` , can you help?
168

These measurements were taken from paper PMC9747124.
